target: Sonic hedgehog protein (Mus musculus); experiment: Inhibition of SHH signaling pathway in mouse NIH3T3 cells measured after 48 hrs by Gli-luciferase reporter assay
Sequence (Q62226 25-198 limits assumed): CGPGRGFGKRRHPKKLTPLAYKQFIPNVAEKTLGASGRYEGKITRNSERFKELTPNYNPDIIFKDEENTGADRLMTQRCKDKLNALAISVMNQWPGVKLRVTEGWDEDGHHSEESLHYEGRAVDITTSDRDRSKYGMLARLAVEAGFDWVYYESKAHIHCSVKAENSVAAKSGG
pIC50: −log10 of the molar value.
observation.type: pIC50

mol=Cc1ccccc1C(=O)Nc1ccc(Nc2ncc(C)c(-c3ccc(OC(F)(F)F)cc3)n2)cc1 tgt="Sonic hedgehog protein (Mus musculus)" relational_operator== readout_value=7.38
mol=Cc1cnc(Nc2ccc(C(=O)Nc3c(C)cccc3C)cc2)nc1-c1ccc(OC(F)(F)F)c(F)c1 tgt="Sonic hedgehog protein (Mus musculus)" relational_operator== readout_value=6.80
mol=Cc1cnc(Nc2ccc(C(=O)NC(C)C)cc2)nc1-c1ccc(OC(F)(F)F)cc1 tgt="Sonic hedgehog protein (Mus musculus)" relational_operator== readout_value=7.14
mol=Cc1cnc(Nc2ccc(C(=O)Nc3c(C)cccc3C)cc2)nc1-c1ccccc1OC(F)(F)F tgt="Sonic hedgehog protein (Mus musculus)" relational_operator=< readout_value=6.30
mol=Cc1cnc(Nc2ccc(C(=O)Nc3c(C)cccc3C)cc2)nc1-c1ccc(F)cc1 tgt="Sonic hedgehog protein (Mus musculus)" relational_operator== readout_value=8.66
mol=Cc1cnc(Nc2ccc(C(=O)Nc3c(C)cccc3C)cc2)nc1C1CC1 tgt="Sonic hedgehog protein (Mus musculus)" relational_operator== readout_value=7.48
mol=Cc1cnc(Nc2ccc(C(=O)Nc3c(C)cccc3C)cc2)nc1-c1ccncc1 tgt="Sonic hedgehog protein (Mus musculus)" relational_operator== readout_value=9.27
mol=Cc1cnc(Nc2ccc(C(=O)Nc3c(C)cccc3C)cc2)nc1C tgt="Sonic hedgehog protein (Mus musculus)" relational_operator== readout_value=6.82
mol=Cc1ccc(CN(C)Cc2ccccc2)cc1NC(=O)c1ccc(Nc2ncc(C)c(-c3ccc(OC(F)(F)F)cc3)n2)cc1 tgt="Sonic hedgehog protein (Mus musculus)" relational_operator== readout_value=8.96
